system: RXRa homodimer (NR concentration 180 nM); assay: PBM binding z-score (relative to random genomic background probes); higher = stronger binding; sequences stand for … in GC…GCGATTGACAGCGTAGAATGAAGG
Recorded PBM binding z-score values for a group of sequences are listed next.
Write the value as a bare number.

Q: Give its PBM binding z-score value. Item: AGAATGAGGTGAAGATCAGGGAAACAGAATACAT
Result: 1.05

Q: Give its PBM binding z-score value. Item: TCTTGTTGATCAAGCAGGTTAAGAAAGCCTGAGT
Result: 0.248

Q: Give its PBM binding z-score value. Item: CCTACTGGGCAATCAGGTCATTGATATCAACGTT
Result: 1.06

Q: Give its PBM binding z-score value. Item: TCGAGTAGGTAACCAATGGGGCATTCAGCTTTCT
Result: 0.0647

Q: Give its PBM binding z-score value. Item: TAGCCTAAGTCAGATCGGGCCAGTATACGCTATA
Result: -0.25

Q: Give its PBM binding z-score value. Item: CCAGCCAGGTGAGAAGGTAACTCAGCCTCGATTA
Result: 0.0434

Q: Give its PBM binding z-score value. Item: CGTCCAAGGTCATAGGAGGTCAGTGGAGACAGAT
Result: 6.82

Q: Give its PBM binding z-score value. Item: ATAACGAGGGCAATGAGTTGATAGCACGGGTGGC
Result: 1.07

Q: Give its PBM binding z-score value. Item: TAGCCTAGGTCATGCGTGCCAGTATAGTGTCGGC
Result: 2.85
